target: YU2_(gp140) (foldon trimer) (HIV-1 (strain YU2))
property: binding result

561_03_07 (antibody, V domains shown) VH: QLVQSGGGVRRPGASVKISCETPEDTFTKYWLHWLRQAPGQGLEWMGVVSPHGGRPMFAFEFRDRLTLTRDIHTTTHFMELGGLTSDDTAVYYCARDPFGETFRGHDQPYRMDVWGGGTTIVVSS VL: EPVLTQSPGTLSVSPGEGATLSCRARQGFSADHVAWFQKKPGRPPRLLIFEASRRASGTPERFSGSGSGPEYTLTITRVEPEDFAVYYCQSYGSITPLVFGGGTRVDVK = binds
561_09_89 (antibody, V domains shown) VH: QLVQWGGGVKRPGASVRISCQCPEDTFTKYYIHWVRQAPGRGLEWLGMVSPHGGRPFHTSEFRDRLTMTREIHETTHHMVLSGLGVGDSGTYFCARDPLGEKSPAYSHHMDVWGGGATVIVSS VL: AVVLTQSPVTLSVSPGESAVLSCRASHGLDTRHVTWFQQKRGQAPRLLIFATSRRASGVSDRFRATDGGSATDFNLTITAVEPADFATYYCQTYGAITPITFGGGTKLDLK = binds
561_08_52 (antibody, V domains shown) VH: QLVQWGGGVKRPGASVRISCQCPEDTFTKYYIHWVRQAPGRGLEWLGMVSPHGGRPFHTSEFRDRLTMTRDIHETTHHMVLSGLGVADSGTYFCARDPLGEKSPAYSHHMDVWGGGATVIVSS VL: AVVLTQSPVTLSVSPGETAILSCRASHGLDTRHVTWFQQKRGQAPRLLIFATYRRASGVSDRFRATDSGSATDFNLTITAVEPADFATYFCQTYGAITPITFGGGTKVDLK = binds
